system: OVCAR-5 ovarian; assay: NCI tumour cell line growth inhibition, 48 h
Listed molecules paired with reported TGI

Lookup: Find the measured TGI: item Nc1nc(=Nc2ccccc2)ss1 , target or system OVCAR-5 ovarian.
Found: > 100 µM

----------
test system: SNB-78 CNS; assay: NCI tumour cell line growth inhibition, 48 h
Listed molecules paired with reported TGI

>>> measured_result("O=C(O)CCSC(=S)Nc1ccc([N+](=O)[O-])cc1")
"> 100 µM"
>>> measured_result("CC(C)c1cccc(C(C)C)c1NC(=O)CCC(=O)NN")
"> 100 µM"
>>> measured_result("COC1CC(OC)C(O)C(CO)O1 (configuration not stated)")
"> 100 µM"
>>> measured_result("O=C(NNC(=O)c1nsc2ccccc12)c1ccc(Cl)cc1")
"61.7 µM"
>>> measured_result("COc1ccc(C2C3=C(COC3=O)Oc3cc4c(cc32)OCO4)cc1 (configuration not stated)")
"> 100 µM"
>>> measured_result("C=C(CN(C)C)C(=O)c1ccc(Oc2ccccc2)cc1")
"41.9 µM"

# context switch: different molecule, same TGI
Lookup: Name the reported TGI value associated with the molecule CCN(CC)CCCNc1ncc(C)c2c1c1ccc3c(O)cccc3c1n2C
Found: > 61 µM

----------
system: HCT-116 colon; assay: NCI tumour cell line growth inhibition, 48 h
Listed compounds paired with reported TGI

Recorded TGI, per entry:
>>> measured_result("C[N+](C)(CCO)CCN1c2ccccc2Sc2ccccc21")
"> 10 µM"
>>> measured_result("N#CSc1ccc(S(N)(=O)=O)cc1")
"> 100 µM"
>>> measured_result("Oc1c(CN2CCN(c3ccccc3F)CC2)cc(Br)c2cccnc12")
"> 40.7 µM"

Lookup: Name the reported TGI value associated with the compound C=CCC1C(=O)Nc2cccc3ncn(c23)C1=O (stereo not given)
Found: > 100 µM

Lookup: Name the reported TGI value associated with the compound CC1=C[C@@H]2[C@@H](CC(CO)=C[C@H]3[C@@H]4C(C)(C)[C@]4(OCC(C)C)[C@H](OCC(C)C)[C@@H](C)[C@]23O)C1=O
Found: > 4.72 µM

----------
test system: HCC-2998 colon; experiment: NCI tumour cell line growth inhibition, 48 h
Listed molecules paired with reported TGI
Response body: numeric value in µM, unit text excluded.

Recorded TGI, per entry:
>>> measured_result("Nc1c2ccccc2nc2ccccc12 (tested in a mixture with another compound)")
4.6
>>> measured_result("CN1CCN(CC(=O)N2c3cccc4cccc(c34)N(C(=O)CN3CCN(C)CC3)C2c2cn(-c3ccccc3)nc2-c2cccc([N+](=O)[O-])c2)CC1")
3.01
>>> measured_result("O=S(=O)(Nc1ccccn1)c1ccc(N=Nc2ccc(O)c3ncccc23)cc1")
18.4

Lookup: Name the reported TGI value associated with the molecule C=CCSSc1ncnc2c1ncn2C1OC(CO)C(O)C1O (centres undefined)
Found: 60

Lookup: Name the reported TGI value associated with the molecule Cc1ccc(NC(=O)c2cc3ccccc3cc2O)c(C)c1.Cc1ccc(NC(=O)c2cc3ccccc3cc2[O-])c(C)c1.[Ni+2]
Found: 6.74

Lookup: Name the reported TGI value associated with the molecule CN(C)Cc1cc(/C=C/C(=O)c2ccc(Cl)c(Cl)c2)cc(CN(C)C)c1O
Found: 19.3

----------
test system: HL-60(TB) leukemia; test: NCI tumour cell line growth inhibition, 48 h
Listed compounds paired with reported TGI

>>> measured_result("COc1ccc(C(c2ccc3c(c2)OCO3)N2C(=O)CCC2C(=O)O)cc1 (stereo not drawn)")
"> 100 µM"
>>> measured_result("COc1ccc2c(c1)CC[C@@H]1[C@@H]2CC[C@]2(C)C(=O)/C(=C/c3ccc(O)c(OC)c3)C[C@@H]12")
"> 100 µM"

Lookup: Name the reported TGI value associated with the compound COc1ccc(C)cc1Nc1nnc(-c2ccc(N)cc2)s1
Found: > 100 µM
